# experiment: Pharmacokinetics in cynomolgus macaque
# Format: in vivo
# protocol.conditions: male, cynomolgus monkey, plasma, po, intragastric administration 15 mg/kg, read-out: Half-life period T1/2(h) (converted)
quantity.measured: half-life (h)
The figure you give is taken to be in h; do not add the unit.

If you can, please state the reported half-life value of COCC[C@@H](C(=O)Nc1ccc2nn(C)cc2c1)N1CC(=O)N(c2cc(Cl)ccc2-n2cc(Cl)nn2)CC1=O . 3.71

* * *

# experiment: Pharmacokinetics in SD rat
# Assay type: in vivo
# protocol.conditions: male, plasma, po, intragastric administration 10 mg/kg, read-out: Half-life period T1/2(h) (converted)
Binary call on half-life: satisfied from 1 h upward, not satisfied beneath that.

Has NC(=O)c1ccc(NC(=O)C(Cc2ccccc2)N2CC(=O)N(c3cc(Cl)ccc3-n3cc(Cl)nn3)CC2=O)cc1F (stereo not drawn) a recorded half-life greater than or equal to 1 h? satisfied

Subsequent entry: COCCC(C(=O)Nc1ccc2nn(C)cc2c1)N1CC(=O)N(c2cc(Cl)ccc2-n2cc(Cl)nn2)CC1=O (stereo not drawn) satisfied

Subsequent entry: Cn1ccc(C[C@H](C(=O)Nc2ccc3nn(C)cc3c2)N2CC(=O)N(c3cc(Cl)ccc3-n3cc(Cl)nn3)CC2=O)n1 satisfied

Subsequent entry: Cn1cc2cc(NC(=O)C(CC3CCCCO3)N3CC(=O)N(c4cc(Cl)ccc4-n4cc(Cl)nn4)CC3=O)ccc2n1 (stereo not drawn) not satisfied

Subsequent entry: Cn1ccc(CC(C(=O)Nc2ccc3nn(C)cc3c2)N2CC(=O)N(c3cc(Cl)ccc3-n3cc(Cl)nn3)CC2=O)n1 (stereo not drawn) satisfied
